Target Or System: T1, FcRn-p3 fusion protein (human, UniProt P55899 24-297; P61769 21-119)
T1 construct: baculovirus expressed; coated on ELISA wells; not shown: amino terminal part of bacteriophage p3 protein and CVDE protein
T1 sequence (P55899 24-297, chain 1 of 2): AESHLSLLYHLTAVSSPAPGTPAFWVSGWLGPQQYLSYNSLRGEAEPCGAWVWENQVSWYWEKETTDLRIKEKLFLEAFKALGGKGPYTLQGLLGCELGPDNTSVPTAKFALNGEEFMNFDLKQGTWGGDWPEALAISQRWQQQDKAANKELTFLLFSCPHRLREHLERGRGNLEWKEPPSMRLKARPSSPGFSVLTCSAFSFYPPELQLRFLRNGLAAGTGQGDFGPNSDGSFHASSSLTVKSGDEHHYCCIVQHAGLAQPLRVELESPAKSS
T1 sequence (P61769 21-119, chain 2 of 2): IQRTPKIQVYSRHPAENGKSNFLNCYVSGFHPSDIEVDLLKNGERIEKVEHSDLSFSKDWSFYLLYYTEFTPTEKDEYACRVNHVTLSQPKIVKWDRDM
Assay Notes: phage ELISA pH6 (est.)
Measured Quantity: Ratio/FWT (fold)
Unit fold implied. Number only.

Exam item: Entry T6A_75 (other, EU numbering) CPPCTAPELLGGPSVFLFPPKPKDTLMISRTPEVTCVVVDVSHEDPEVKFNWYVDGVEVHNAKTKPREEQYNSTYRVVSVLTVLHQDWLDGKEYKCKVSNKALPAPIEKTISKAKGQPREPQVYTLPPSRDELTKNRVSLTCLVKGFYPSDIAVEWESNGQPENNYKTTPPVLDSDGSFFLYSKLTVDKSRWQQGNVFSCTVMHEALHYHYTQKSLSLSPGK needs its Ratio/FWT filled in; supply it.
Marked response: 18.3

Reference for the values: patent USRE46585
